// values below are reported koff
TGT: T1, human Trop-2-His protein (human, UniProt P09758 27-274)
T1 construct: extracellular domain; Assay paragraphs say only 'Trop-2-His'; also called hTrop-2; Kactus Cat #TRP-HM121; not shown: His tag
T1 sequence (looked up): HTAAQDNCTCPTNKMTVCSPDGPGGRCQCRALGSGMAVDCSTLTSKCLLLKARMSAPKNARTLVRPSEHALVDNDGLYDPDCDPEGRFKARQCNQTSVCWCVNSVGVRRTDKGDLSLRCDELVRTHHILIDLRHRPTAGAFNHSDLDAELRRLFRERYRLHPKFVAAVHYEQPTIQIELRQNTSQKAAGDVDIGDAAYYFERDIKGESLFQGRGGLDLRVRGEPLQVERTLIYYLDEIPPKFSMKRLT
TEST METHOD NOTES: BLI (Gator Prime), LEM supernatant Ab on HFC probe
Numbers only here, please. The scale is s⁻¹.

// known answers, use as guide
>  <BINDER>
8H2 (antibody, V domains shown, Rabbit-derived clone; LEM construct: VH + rabbit IgG CH1 + human IgG1 CH2-CH3) VH: QSLEESGGDLVQPGASLTLTCKASGFDLNNYAMLWVRQAPGKGLEWIGCIYISGGTTYFASWATGRFAISKTSSTTVTLQMTSLTAADTATYFCARDDGSTSYYLNLWGPGTLVTVSS VL: YDMTQTPASVSAAVGGTVTIKCQASEDIYSLLAWYQQKPGQPPKLLIYDASDLASGVPSRFKGSGSGTEYTLTISALECDDAATYYCQQAYTIGNIDNTFGGGTEVVVK

>  <OBSERVED VALUE>
9.6e-05

$$$$
>  <BINDER>
10E12 (antibody, V domains shown, Rabbit-derived clone; LEM construct: VH + rabbit IgG CH1 + human IgG1 CH2-CH3) VH: QSLEESGGDLVQPGASLTLTCKASGFDLNNYAMLWVRQAPGKGLEWIGCIYISGGTTYFASWATGRFAISKTSSTTVTLQMTSLTAADTATYFCARDDGTTSYYLNLWGPGTLVTVSS VL: YDMTQTPASVSAAVGGTVTIKCQASEDIYSLLAWYQQKPGQPPKLLIYDASDLASGVPSRFKGSGSGTEYTLTISDLECDDAATYYCQQAYTIGNIDNAFGGGTEVVVK

>  <OBSERVED VALUE>
6.8e-05

$$$$

Attention now turns to another entry.
Given 10A9 (antibody, V domains shown, Rabbit-derived clone; LEM construct: VH + rabbit IgG CH1 + human IgG1 CH2-CH3) VH: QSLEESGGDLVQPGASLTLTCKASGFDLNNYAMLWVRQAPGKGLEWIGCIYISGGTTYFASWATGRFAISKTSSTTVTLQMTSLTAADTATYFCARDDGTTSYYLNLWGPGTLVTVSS VL: YDMTQTPASVSAAVGGTVTIKCQASEDIYSLLAWYQQKPGQPPKLLIYGASNLESGVPSRFKGSGSGTEYTLTISDLECDDAATYYCQQAYTIGNIDNAFGGGTEVVVK , state its recorded koff.
5.3e-05
